Source: PubChem BioAssay (NCI)

# experiment-notes: NCI Yeast Anticancer Drug Screen. Data for the bub3 strain (AID 167)
# condition-description: S. cerevisiae bub3 mutant strain, at 50.0 µM
# Description: Growth inhibition of yeast strains with defined genetic alterations is measured as a screen for potential anti-cancer activity. Selected strains with alterations in DNA damage repair or cell cycle control were exposed to compounds and growth inhibition was measured relative to vehicle treated controls. The strain used in this assay is bub3
The panel holds about 79,000 compounds, 15% with a hit somewhere; the sample as a whole holds those more often. Active and inactive are the calls of the source. Cut-off read from the data, not from the text of the source: active = growth inhibition above about 70%; inactive = the rest.
Classes used: 1 (active), 0 (inactive)

compound: COc1ccc([N+](=O)[O-])cc1N=Cc1ccc(N(CCCl)CCCl)cc1C
class-assignment: 0
--
compound: CCOC(=O)Oc1c(Cl)cc(S(=O)(=O)F)cc1Cl
class-assignment: 1
--
compound: CCN1CCC2(CC1)COCc1ccccc12
class-assignment: 0
--
compound: O=C1C(=O)c2ccccc2C(O)=C1CN(CCCl)CCCl
class-assignment: 0
--
compound: N#CC(Cl)(Cl)CCl
class-assignment: 0
--
compound: CCC[CH2][Sn]1([CH2]CCC)[O]C(=O)c2cccnc2[S]1
class-assignment: 1
--
compound: O=[N+]([O-])O.[In]
class-assignment: 0
--
compound: O=C([O-])C(F)(F)C(F)(F)F.[C-]#[O+].[C-]#[O+].[C-]#[O+].[C-]#[O+].[C-]#[O+].[Mn]
class-assignment: 0
--
compound: Nc1ccc([N+](=O)[O-])cc1Cl
class-assignment: 0
--
compound: Cc1[cH-]c(=O)n(-c2ccccc2)n1.[Au+].[Au].c1ccc([PH+](c2ccccc2)c2ccccc2)cc1.c1ccc([PH+](c2ccccc2)c2ccccc2)cc1
class-assignment: 1
--
compound: BrP(NC1CCCCCC1)(c1ccccc1)(c1ccccc1)c1ccccc1
class-assignment: 1
--
compound: CC1(C)OC(C=O)C2CC(=O)c3c(O)cccc3C2(C)O1 (stereo not given)
class-assignment: 0
--
compound: CC(=O)Oc1ccc([As](=O)(O)O)cc1
class-assignment: 0
--
compound: CCNC(Cc1ccccc1)C1CCCO1 (stereo not given)
class-assignment: 0
--
compound: O=C1CC(=O)N(C2CCC(C3CCCCC3)CC2)C(=O)N1 (stereo not given)
class-assignment: 0
--
compound: [N-]=[N+]=C1CNC(=O)NC1=O
class-assignment: 0
--
compound: ClC1CCCCC1[Se](Cl)(Cl)C1CCCCC1Cl (stereo not given)
class-assignment: 1
--
compound: CN(C)CCN=C(N)N[N+](=O)[O-]
class-assignment: 0
--
compound: c1cs[c]([Hg][c]2cccs2)c1
class-assignment: 1
--
compound: Cc1cc(Cl)nc(N)n1
class-assignment: 0
--
compound: CCCCCCCCCCCCBr
class-assignment: 0
--
compound: O=C(c1ccccc1)c1c(CC(O)c2cccnc2)n(C(=O)c2ccccc2)c2ccccc12 (stereo not given)
class-assignment: 1
--
compound: COP(=O)(NC(=O)OC(C)C)OC
class-assignment: 0
--
compound: CNC(Cc1ccccc1)c1cccc(O)c1 (stereo not given)
class-assignment: 0
--
compound: C(=C/[PH+](c1ccccc1)c1ccccc1)/[PH+](c1ccccc1)c1ccccc1.C(=C/[PH+](c1ccccc1)c1ccccc1)/[PH+](c1ccccc1)c1ccccc1.C(=C/[PH+](c1ccccc1)c1ccccc1)/[PH+](c1ccccc1)c1ccccc1.[Pt]
class-assignment: 0
--
compound: CC[P+](C#Cc1ccccc1)(c1ccccc1)c1ccccc1
class-assignment: 1
--
compound: CCOC(=O)CC(=O)C(F)(F)F.CCOC(=O)CC(=O)C(F)(F)F.[Ni]
class-assignment: 0
--
compound: CCCCOc1ccc([As](=O)(O)O)cc1
class-assignment: 0
--
compound: CC1(C)[C@@H]2CC[C@@]1(C)CN(CCC[N+](C)(C)C)C2
class-assignment: 0
--
compound: NC(=S)Nc1ccccc1
class-assignment: 0
